# target or test system: T1, cynomolgus monkey IL-6 (cynomolgus monkey, UniProt P79341 28-212, limits assumed)
# T1 construct: also called HIS-cyIL-6
# test method notes: SPR; periplasmic fraction; against parental 29B11
assay readout: fold improvement KD (fold)
Express the result in fold but write the number alone.

Lab note: measured fold improvement KD of Fab 47C2 (Fab, V domains shown, VL-shuffled Fab of 29B11, periplasmic fraction; also called 47C2 (R4)) VH: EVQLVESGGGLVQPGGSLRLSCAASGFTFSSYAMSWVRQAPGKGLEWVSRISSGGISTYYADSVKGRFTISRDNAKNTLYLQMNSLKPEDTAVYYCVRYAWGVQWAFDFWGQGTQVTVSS VL: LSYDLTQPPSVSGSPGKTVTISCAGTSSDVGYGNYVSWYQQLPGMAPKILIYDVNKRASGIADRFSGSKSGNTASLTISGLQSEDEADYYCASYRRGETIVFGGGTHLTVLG was 4.29
